Cited source: ChEMBL document CHEMBL1131530

Molecular target: Dihydrofolate reductase (Rattus norvegicus, UniProt Q920D2)
Sequence (Q920D2 whole entry): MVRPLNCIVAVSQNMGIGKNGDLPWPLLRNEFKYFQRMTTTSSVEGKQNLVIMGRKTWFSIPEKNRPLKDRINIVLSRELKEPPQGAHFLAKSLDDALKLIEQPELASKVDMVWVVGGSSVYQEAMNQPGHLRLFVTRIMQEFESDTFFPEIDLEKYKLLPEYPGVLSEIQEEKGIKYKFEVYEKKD
PROPERTY_LABEL: pIC50
Worth noting: pIC50 values are minus log10 of concentrations stated in mol/L.

Request: // fetch pIC50 given entry Nc1nc(N)c2c3c(oc2n1)CN(Cc1ccc(Cl)cc1Cl)CC3
Response: 4.29

Request: // fetch pIC50 given entry Nc1nc(N)c2c3c(oc2n1)CN(Cc1c(Cl)cccc1Cl)CC3
Response: 4.09

Request: // fetch pIC50 given entry Nc1nc(N)c2c3c(oc2n1)CN(Cc1ccccc1)CC3
Response: 4.82

Request: // fetch pIC50 given entry Nc1nc(N)c2c3c(oc2n1)CN(Cc1ccc(C(=O)N[C@@H](CCC(=O)O)C(=O)O)cc1)CC3
Response: 4.07

Request: // fetch pIC50 given entry COc1cc(CN2CCc3c(oc4nc(N)nc(N)c34)C2)cc(OC)c1
Response: 4.64

Request: // fetch pIC50 given entry Nc1nc(N)c2c3c(oc2n1)CN(Cc1ccc(Cl)c(Cl)c1)CC3
Response: 4.69
